Values were extracted from patent US8735406B2.

Hi there, I'd appreciate the recorded inhibition at 0.1 µM for every entry that follows.
- MEASUREMENT_TARGET: FAAH (Rattus norvegicus, UniProt P97612)
- Construct: Preparation of Rat Brain Membranes Preparations (FAAH Enzyme Solution); from tissue; host or cells: rat cerebrum (brain membrane preparation)
- Sequence (P97612 1-579): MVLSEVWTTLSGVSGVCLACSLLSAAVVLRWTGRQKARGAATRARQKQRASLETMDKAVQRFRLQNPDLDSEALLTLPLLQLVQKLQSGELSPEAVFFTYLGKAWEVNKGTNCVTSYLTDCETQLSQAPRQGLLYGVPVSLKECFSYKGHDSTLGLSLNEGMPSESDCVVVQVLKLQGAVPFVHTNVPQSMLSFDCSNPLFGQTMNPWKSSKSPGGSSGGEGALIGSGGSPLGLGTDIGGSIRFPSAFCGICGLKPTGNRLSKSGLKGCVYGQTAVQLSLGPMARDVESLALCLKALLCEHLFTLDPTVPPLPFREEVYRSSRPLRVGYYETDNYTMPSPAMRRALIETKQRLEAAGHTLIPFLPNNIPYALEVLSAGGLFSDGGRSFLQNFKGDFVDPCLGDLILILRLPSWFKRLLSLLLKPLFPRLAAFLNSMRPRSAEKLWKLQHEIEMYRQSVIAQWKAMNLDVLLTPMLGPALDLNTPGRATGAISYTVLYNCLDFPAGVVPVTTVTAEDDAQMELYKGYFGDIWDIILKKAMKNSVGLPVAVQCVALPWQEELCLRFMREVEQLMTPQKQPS
- ASSAY_NOTES: Determination of FAAH inhibitory activity in rat (rat brain membrane preparations, [3H]-anandamide hydrolysis)
- Type: biochemical
- TEST_SETTINGS: rat brain membrane preparations; 100 nM test substance; read-out: FAAH Inhibition, Inhibition Rate at 100 nM
The answer should read as a number with its unit following.

The molecule listed as Cn1c(=O)n(C(=O)N2CCC2)c2cnc(-c3ccccc3)nc21 [Example 23] shows inhibition at 0.1 µM equal to 102%

For this molecule ( CCOc1cccc(C2CN(C(=O)n3c(=O)n(C)c4nc(COC)ncc43)C2)c1 [compound 451] ), measured inhibition at 0.1 µM is 95%

For Cn1c(=O)n(C(=O)N2CCC2)c2nc(COc3ccccc3)ncc21 [Example 415] the molecule record lists inhibition at 0.1 µM as 41%

Lab book: inhibition at 0.1 µM of Cn1c(=O)n(C(=O)N2CCCC2)c2nc(-c3cccc(C(F)(F)F)c3)ncc21 [Example 234] noted as 100%

Lab note: measured inhibition at 0.1 µM of Cc1cc(C)c(CCc2ncc3c(n2)n(C(=O)N2CCC2)c(=O)n3C)c(C)c1 [compound 566] was 96%

The recorded inhibition at 0.1 µM for entry Cn1c(=O)n(C(=O)N2CCC2)c2nc(CCc3ccc(C4CC4)cc3)ncc21 [compound 573] equals 99%

Summary for this molecule, Cn1c(=O)n(C(=O)N2CCC2)c2cnc(Cc3ccc(F)cc3)nc21 [compound 373] : inhibition at 0.1 µM is 90%

// field: inhibition at 0.1 µM; key: Cn1c(=O)n(C(=O)N2CCC2)c2nc(CCc3cc(F)cc(F)c3)ncc21 [Example 580] ; value = 81%

====

What IC50 was measured for each of the following?
- MEASUREMENT_TARGET: FAAH (Rattus norvegicus)
- Construct: Preparation of Rat Brain Membranes Preparations (FAAH Enzyme Solution); from tissue; host or cells: rat cerebrum (brain membrane preparation)
- ASSAY_NOTES: Determination of FAAH inhibitory activity in rat (rat brain membrane preparations, [3H]-anandamide hydrolysis)
- Assay type: biochemical
- TEST_SETTINGS: rat brain membrane preparations; test substance 0.1 nM to 1 μM; read-out: FAAH Inhibition IC50
Please format your answer as a value with the unit trailing.

compound Cn1c(=O)n(C(=O)N2CCC2)c2cnc(COc3cccc(OC(F)F)c3)nc21 , IC50 observed: 11 nM

In plain terms, COCCc1ncc2c(n1)n(C)c(=O)n2C(=O)N1CC(c2ccccc2)C1 has a documented IC50 of 9 nM

Consider COc1cccc(-c2ncc3c(n2)n(C)c(=O)n3C(=O)N(C)CCc2ccccn2)c1 . Its measured IC50 is 2 nM

Input CN(C)C(=O)n1c(=O)n(C)c2nc(-c3ccncc3)ncc21 . Output IC50: 30 nM

Reported IC50 ( CN(C)C(=O)n1c(=O)n(C)c2nc(-c3cccnc3)ncc21 ) = 15 nM

Per the record, CCN(C)C(=O)n1c(=O)n(C)c2nc(C3CC3)ncc21 has IC50 of 81 nM

// sample CCOc1ccc(C2CN(C(=O)n3c(=O)n(C)c4nc(CCOC)ncc43)C2)cc1 , its IC50 was 11 nM

response.value for COc1ccc(-c2ncc3c(n2)n(C)c(=O)n3C(=O)N2CCCC2)cc1 (field: IC50) = 6 nM

Reported IC50 for Cn1c(=O)n(C(=O)N2CCCC2)c2cnc(/C=C/c3ccc(Cl)cc3)nc21 was 57 nM

====

- MEASUREMENT_TARGET: FAAH (Rattus norvegicus, UniProt P97612)
- Construct: Preparation of Rat Brain Membranes Preparations (FAAH Enzyme Solution); from tissue; host or cells: rat cerebrum (brain membrane preparation)
- ASSAY_NOTES: Determination of FAAH inhibitory activity in rat (rat brain membrane preparations, [3H]-anandamide hydrolysis)
- Type: biochemical
- TEST_SETTINGS: rat brain membrane preparations; test substance 0.1 nM to 1 μM; read-out: FAAH Inhibition IC50
pIC50: −log10 of the molar value.
Outcome label depends on pIC50 relative to 8: at/above gives yes (1), below gives no (0).

Problem: Could you verify whether the entry COC(=O)CN(C)C(=O)n1c(=O)n(C)c2nc(-c3ccccc3)ncc21 shows pIC50 of no less than 8?
Solution: no (0)

Problem: Please check the record COc1cccc(-c2ncc3c(n2)n(C)c(=O)n3C(=O)N(C)Cc2cccc(C(F)(F)F)c2)c1 and state if its pIC50 is at or above 8.
Solution: no (0)

Problem: Entry CN(C)C(=O)n1c(=O)n(C)c2cnc(CCc3ccc(C4CC4)c(F)c3)nc21 : is its pIC50 no less than 8?
Solution: no (0)

Problem: Decide: pIC50 of CCOc1ccc(N2CCN(C(=O)n3c(=O)n(C)c4nc(-c5ccccc5)ncc43)CC2)cc1 >= 8?
Solution: yes (1)

Problem: Determine whether measured pIC50 meets or exceeds 8 for COCCc1ncc2c(n1)n(C)c(=O)n2C(=O)N1CC(c2ccc(F)cc2)C1
Solution: yes (1)

Problem: # check: pIC50 of Cc1ccc(-c2ncc3c(n2)n(C)c(=O)n3C(=O)N2CCCC2)cc1 is greater than or equal to 8
Solution: no (0)

Problem: Tell me whether pIC50 is at least 8 here: CCOc1ccc(Cc2ncc3c(n2)n(C)c(=O)n3C(=O)N2CCCC2)cc1
Solution: no (0)

====

- MEASUREMENT_TARGET: FAAH (Rattus norvegicus)
- Construct: Preparation of Rat Brain Membranes Preparations (FAAH Enzyme Solution); from tissue; host or cells: rat cerebrum (brain membrane preparation)
- Sequence (P97612 1-579): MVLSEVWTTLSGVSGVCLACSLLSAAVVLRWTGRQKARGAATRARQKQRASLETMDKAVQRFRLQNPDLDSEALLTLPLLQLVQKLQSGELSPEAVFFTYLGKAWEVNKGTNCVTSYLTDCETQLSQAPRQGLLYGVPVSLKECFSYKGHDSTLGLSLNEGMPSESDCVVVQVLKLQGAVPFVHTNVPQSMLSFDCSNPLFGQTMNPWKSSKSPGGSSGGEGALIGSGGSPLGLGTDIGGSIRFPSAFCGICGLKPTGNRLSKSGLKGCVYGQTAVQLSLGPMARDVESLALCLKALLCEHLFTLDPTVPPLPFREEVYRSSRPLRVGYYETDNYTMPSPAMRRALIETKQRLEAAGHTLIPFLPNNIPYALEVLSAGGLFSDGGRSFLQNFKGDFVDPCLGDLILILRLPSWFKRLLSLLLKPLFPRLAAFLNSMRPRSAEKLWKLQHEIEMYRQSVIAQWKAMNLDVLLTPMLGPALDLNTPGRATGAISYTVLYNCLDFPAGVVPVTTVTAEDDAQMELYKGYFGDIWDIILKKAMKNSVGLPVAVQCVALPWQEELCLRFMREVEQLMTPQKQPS
- ASSAY_NOTES: Determination of FAAH inhibitory activity in rat (rat brain membrane preparations, [3H]-anandamide hydrolysis)
- Type: biochemical
- TEST_SETTINGS: rat brain membrane preparations; 100 nM test substance; read-out: FAAH Inhibition, Inhibition Rate at 100 nM
- Experimental: Determination of FAAH Inhibitory Activity in Rat The preparation of rat brain membranes preparations and the determination of FAAH inhibitory activity were carried out according to the Jonsson et al. method [Br. J. Pharmacol., 133, 1263 (2001)]. (1) Preparation of Rat Brain Membranes Preparations (FAAH Enzyme Solution) The cerebrum was extracted from rats and was freeze-stored at −80° C. […]
Could you please report measured inhibition at 0.1 µM for the items listed next?
State the answer as a number, implicitly in %.

Reported inhibition at 0.1 µM for COc1cccc(-c2ncc3c(n2)n(C)c(=O)n3C(=O)N2CCN(C3CCCCC3)CC2)c1 was 99

Documented inhibition at 0.1 µM of Cn1c(=O)n(C(=O)N2CCCC2)c2cnc(-c3cc(C(F)(F)F)ccc3F)nc21 : 68

inhibition at 0.1 µM reported for this compound Cc1cc(C)cc(-c2ncc3c(n2)n(C)c(=O)n3C(=O)N2CCCC2)c1 : 69

Sure, the documented inhibition at 0.1 µM for CN(C)C(=O)n1c(=O)n(C)c2cnc(CCc3cccc(Cl)c3)nc21 is 96

// inhibition at 0.1 µM lookup, compound = CCc1cccc(OCc2ncc3c(n2)n(C(=O)N2CCC2)c(=O)n3C)c1 , result: 75

Notebook: Cn1c(=O)n(C(=O)N2CCCC2)c2cnc(-c3ccnc(Cl)c3)nc21 , inhibition at 0.1 µM read as 99

The compound CCN(C)C(=O)n1c(=O)n(C)c2nc(Cc3ccc(C(F)(F)F)cc3)ncc21 showed inhibition at 0.1 µM equal to 59

The reported inhibition at 0.1 µM of the compound CN(CCc1ccc(Cl)cc1)C(=O)n1c(=O)n(C)c2nc(-c3cccnc3)ncc21 was 100
